TEST SYSTEM: UniProtKB P27338
Sequence (P27338 2-520): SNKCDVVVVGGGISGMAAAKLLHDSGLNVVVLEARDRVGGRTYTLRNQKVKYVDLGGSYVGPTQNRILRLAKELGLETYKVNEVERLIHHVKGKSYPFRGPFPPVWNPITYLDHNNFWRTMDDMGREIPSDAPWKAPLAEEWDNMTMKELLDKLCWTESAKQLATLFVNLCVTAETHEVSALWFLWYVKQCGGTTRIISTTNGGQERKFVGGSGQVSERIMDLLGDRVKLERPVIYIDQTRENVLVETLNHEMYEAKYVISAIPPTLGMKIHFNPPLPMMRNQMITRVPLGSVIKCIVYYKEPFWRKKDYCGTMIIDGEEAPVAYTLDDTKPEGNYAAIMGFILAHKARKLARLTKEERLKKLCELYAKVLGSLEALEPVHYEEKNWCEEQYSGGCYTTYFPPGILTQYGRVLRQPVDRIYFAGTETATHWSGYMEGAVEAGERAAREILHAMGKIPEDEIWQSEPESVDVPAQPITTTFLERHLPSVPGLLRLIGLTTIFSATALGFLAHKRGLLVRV
PROTOCOL NOTES: Enzyme assay with human recombinant MAO-B (insect cells), kynuramine substrate, spectrofluorimetric, […] concentrations
REPORTED PROPERTY: pIC50
Numbers only, as −log10 of the molar value.

Reported pIC50, compound CCCCCCCCCCCCCCC(=O)O [C15:0, Pentadecanoic acid] : ____
4.71
